Test system: HOP-92 NSCLC
Assay: NCI tumour cell line growth inhibition, 48 h
OBSERVATION_TYPE: TGI (µM)
API: value field is a number in µM; no unit string.

>>> assay_value("CC(=O)OCC1OC(NC(=S)CCSc2nc3ccccc3c(=O)n2-c2ccccc2)C(OC(C)=O)C(OC(C)=O)C1OC(C)=O (centres undefined)")
98.1
>>> assay_value("C=C1C(=O)O[C@H]2[C@H]1CC/C(COC(=O)NCc1[nH]nc3ccccc13)=C\\CC[C@@]1(C)O[C@@H]21")
4.11
>>> assay_value("CCCCC/C=C1\\CC(CO)(COC(=O)CC(C(C)C)C(C)C)OC1=O (centres undefined)")
20.9
>>> assay_value("Nc1ccccc1C(=O)CCc1c[nH]c2ccccc12")
55.2

Would you kindly look at the next entry?
Query :: Query (compound): "N=C1N(c2ccccc2)C(=S)C(=Nc2ccccc2)N1c1ccccc1" ; field requested: TGI
Result :: 22.9

* * *

Test system: NCI-H522 lung
Test: NCI tumour cell line growth inhibition, 48 h
OBSERVATION_TYPE: GI50

>>> assay_value("CCN(CCCNC(=O)Cc1cc(=O)oc2cc(N(C)C)ccc12)CCNc1ccnc2cc(Cl)ccc12")
"4400 nM"
>>> assay_value("c1cc(N2CCN(c3ccc(C4=NCCN4)cc3)CC2)ccc1C1=NCCN1")
"21200 nM"
>>> assay_value("COc1ccc(/C=C2\\CS(=O)(=O)C/C(=C\\c3ccc(OC)cc3)C2=O)cc1")
"1150 nM"

Query :: State its GI50 on NCI-H522 lung: "Nc1nc2cc(-c3ccc4ncc(C(=O)N5CCOCC5)n4c3)ccc2o1"
Result :: 7130 nM

Query :: Look up GI50 with NCI-H522 lung for this compound: "Cc1ccc(NS(=O)(=O)c2ccc(-c3cnc(C4CC4)o3)cc2)cc1C"
Result :: 267 nM

Query :: NCI-H522 lung / GI50 / "COc1ccc(/C=N/Nc2nc(N)nc(N3CCCC3)c2C#N)cc1" : value?
Result :: 21900 nM

Query :: # returns recorded GI50 (system: NCI-H522 lung) for "NS(=O)(=O)N(c1cc(C(F)(F)F)cc(C(F)(F)F)c1)C1CCN(Cc2ccc(C(F)(F)F)cc2)CC1"
Result :: 6420 nM

* * *

Tested on: SNB-75 CNS
Assay: NCI tumour cell line growth inhibition, 48 h; in the data active = GI50 below about 0.43 µM; inactive = the rest
Answer with one of the outcomes given here: active, inactive

Reference set (6 entries):
>>> category_label("CSc1nn2c(-c3ccc4ccccc4c3)ccnc2c1C#N")
"active"
>>> category_label("COC(=O)[C@@H]1CCCN1C(=O)[C@@H]1CCCN1C(=O)[C@H](Cc1ccccc1)NC(=S)Nc1cc(C(F)(F)F)cc(C(F)(F)F)c1")
"inactive"
>>> category_label("O=CC(NC(=O)N(CCCl)N=O)C(O)C(O)C(O)CO (stereo not drawn)")
"inactive"
>>> category_label("CCOC(=O)c1ccc(NC(=O)Nc2nccs2)cc1")
"inactive"
>>> category_label("Oc1ccc(/C=C/c2ccc(O)cc2)cc1")
"inactive"
>>> category_label("O=[N+]([O-])c1cc([N+](=O)[O-])c(N2CCCC2)cc1NN=C(c1ccc(O)cc1)c1ccc(O)cc1")
"inactive"

Query :: Kindly provide the recorded test outcome for the following compound: "CN(CCO)C1CCN(c2ccc(Nc3ncc4c5ccnc(F)c5n(C5CCCC5)c4n3)nc2)CC1"
Result :: inactive

Query :: Any idea what this test logged for "COC(=O)c1c2c(c(C)[n+]([O-])c1C)C(=O)C(NCc1cccc(Cl)c1)=CC2=O" ?
Result :: inactive
